Data credit: PubChem BioAssay (NCI)

Listed next: entries and their corresponding TGI.
# Test system: COLO 205 colon
# measurement-description: NCI tumour cell line growth inhibition, 48 h
Give the quantity in µM, number only.

Examples with their reported TGI follow.
Q: I would be grateful if you could share the reported TGI for CC(C)NC(=O)OCCN=C1c2ccccc2C(Br)C(Br)c2ccccc21 (stereo not given) .
A: 18.9

Q: Let us now turn to COc1ccccc1-c1cc(=O)c2cccnc2[nH]1
A: 96

Q: Consider next the molecule C=C(CCC(=O)N(CCc1c[nH]c2ccccc12)C(=O)c1ccccc1CSCC)C(=O)OC in the same way.
A: 54.6

As a next step, examine the molecule that follows.
Q: Entry Cc1cc(C)n(C(=CC(=O)C(Cl)Cl)n2nc(C)cc2C)n1 : reported TGI = ?
A: 40

----------
# Tested on: HOP-92 NSCLC
# measurement-description: NCI tumour cell line growth inhibition, 48 h
experimental-endpoint: GI50

Q: Tell me reported GI50 for O=C(Cc1csc2nc(-c3ccc(Br)cc3)cn12)N/N=C/c1ccccc1O , tested with HOP-92 NSCLC.
A: 2100 nM

Q: Follow-up item: C=C(c1ccc(C(=O)NCCCn2ccnc2)cc1)c1cc2c(cc1C)C(C)(C)CCC2(C)C
A: 1620 nM

Q: // same read-out, input: CCCCCCC1CCCCN1C(c1ccccc1)C(O)c1ccccc1 (stereo unspecified)
A: 2840 nM

Q: Param item: COc1cc2c(cc1OC)C(Sc1ccc(Cl)cc1)c1c(nc(N)c(C#N)c1N)O2 (stereo unspecified)
A: 1510 nM

Q: // next record CN1CCC(C(=O)Nc2n[nH]c3nnc(-c4ccccc4)cc23)CC1
A: 11300 nM

Q: Record: OCCN1CCCN(CCCN2c3ccccc3Sc3ccc(C(F)(F)F)cc32)CC1
A: 1730 nM

----------
# Test system: SK-MEL-28 melanoma
# measurement-description: NCI tumour cell line growth inhibition, 48 h
Listing: GI50 of selected molecules

Worked cases, GI50 given:
Q: For O=[N+]([O-])/C(=C/C=C/c1ccccc1)c1ccccc1 , what is its reported GI50?
A: 2.09 µM

Q: Can you handle COc1ccc2c(c1)CCC1C2CCC2(C)C(NC(=O)CCCCC3CCSS3)CCC12 (stereo not drawn) next?
A: 25.6 µM

Q: Let us now turn to COc1cc(C(=O)Nc2ccc(-c3nc4ccccc4[nH]3)cc2)cc(OC)c1OC
A: 13.7 µM

Q: Now the molecule COc1cc2c(cc1OC)C(Sc1ccc(Cl)cc1)c1c(nc(N)c(C#N)c1N)O2 (stereo not drawn)
A: 1.57 µM

Q: Please answer likewise for CN(Cc1cnc2nc(N)nc(N)c2n1)c1c(Cl)cc(C(=O)NC(CCC(=O)O)C(=O)O)cc1Br (stereo not drawn)
A: > 23.8 µM

Q: // query: COc1ccc(-c2nc3sccn3c2/C=C/C(=O)c2cc(OC)c(OC)c(OC)c2)cc1
A: 4.05 µM

Q: Same question for C=C(c1ccc(C(=O)NCCCn2ccnc2)cc1)c1cc2c(cc1C)C(C)(C)CCC2(C)C please.
A: 1.71 µM

# evaluate next
Q: Given the molecule COC(=O)c1sc(=S)c2sc(C(=O)OC)c(C(=O)OC)c2c1C(=O)OC , what is its reported GI50?
A: 71.8 µM

----------
# Test system: HOP-92 NSCLC
# measurement-description: NCI tumour cell line growth inhibition, 48 h
experimental-endpoint: log10 TGI (log10 of the value in µM)
Scale: log10; quantity: TGI; unit before log: µM

Q: What measured log10 TGI is associated with Cc1cc(Br)c(O)c(-c2cscn2)c1 on HOP-92 NSCLC?
A: 1.63

Q: What do we get for Cc1c(C(=O)/C=C/c2ccc3c(c2)OCO3)[n+](=O)c2ccccc2n1[O-] ?
A: 1.84

Q: # iterate: COc1ccc(-c2nc3sccn3c2/C=C/C(=O)c2cc(OC)c(OC)c(OC)c2)cc1
A: 0.66

Q: Try this molecule next: c1ccc(-c2nc3ccccc3[nH]2)c(OCCCCCOc2ccccc2-c2nc3ccccc3[nH]2)c1
A: 1.17

Next:
Q: Hi! What's the reported log10 TGI for COc1cc(-c2ccc[nH]2)[nH]c1/C=C1\N=C(C)C(C(=O)NC(C)C)=C1C on HOP-92 NSCLC?
A: 0.78

----------
# TGI values compiled below
# Test system: XF 498 CNS
# measurement-description: NCI tumour cell line growth inhibition, 48 h

Q: I am curious: what TGI value has been reported for Cc1cc(C)c(C2=NO[C@@H]3[C@H]2C(=O)C=C2N(Cc4ccccc4)CCO[C@@]23O)c(C)c1 ?
A: > 100 µM

Others:
Q: # TGI lookup, item COC(=O)C1C(=O)NC2(C)CC1c1ccccc1O2 (stereo not given)
A: > 100 µM

Q: Request: Cc1ccc(-n2cc(/C(N)=N/O)c3ccccc3c2=O)cc1
A: > 100 µM

Q: Follow-up item: CC(=O)O[C@H]1C(=O)[C@@]2(C)C([C@H](OC(=O)c3ccccc3)[C@]3(O)C[C@H](OC(=O)[C@H](O)[C@@H](NC(=O)c4ccc(Cl)cc4)c4ccccc4)C(C)=C1C3(C)C)C1(OC(C)=O)CO[C@@H]1C[C@@H]2O (stereo not given in full)
A: 3.73 µM

----------
# Tested on: NCI-H522 lung
# measurement-description: NCI tumour cell line growth inhibition, 48 h
Listing of entries alongside the reported TGI.

Q: GET /values?readout=TGI&system=NCI-H522 lung&item= CC1CC(C)(C)CC(OCCN2CCCCC2)(c2ccccc2)C1 (stereo not given)
A: 21.6 µM

Consider now this further molecule.
Q: Requested read-out TGI, target or system NCI-H522 lung, entry CN1CCC(C(=O)Nc2n[nH]c3nnc(-c4ccccc4)cc23)CC1
A: > 25 µM

----------
Below, each entry is listed with its recorded GI50.
# Tested on: DU-145 prostate
# measurement-description: NCI tumour cell line growth inhibition, 48 h

Here is how some compounds turned out for GI50.
Q: Lab request: please report GI50 under test system DU-145 prostate for Cc1ncc([N+](=O)[O-])n1CCOc1ccc(C(=O)/C=C/c2ccc(C(F)(F)F)cc2)cc1
A: 3.56 µM

Q: Now consider COC(=O)c1sc(=S)c2sc(C(=O)OC)c(C(=O)OC)c2c1C(=O)OC .
A: 71.1 µM

Q: Next entry: CCCCCCC1CCCCN1C(c1ccccc1)C(O)c1ccccc1 (stereo unspecified)
A: 8.34 µM

Q: Also COc1ccc(-c2nc3sccn3c2/C=C/C(=O)c2cc(OC)c(OC)c(OC)c2)cc1 ?
A: 2.86 µM

Q: What would you report for C=C(c1ccc(C(=O)NCCCn2ccnc2)cc1)c1cc2c(cc1C)C(C)(C)CCC2(C)C ?
A: 0.744 µM

Now take the following compound into account.
Q: Provide the documented GI50 with DU-145 prostate as the system for Clc1cc(Cl)cc(Nc2ccc3c(OCCCN4CCOCC4)cccc3n2)c1
A: 3.08 µM

----------
# System: SN12C renal
# measurement-description: NCI tumour cell line growth inhibition, 48 h
experimental-endpoint: TGI

Some compounds with known TGI results, for comparison:
Q: Which TGI is reported for this compound? CC[P+](c1ccccc1)(N(C)C)N(C)C
A: > 100 µM

Q: Proceed to CC(C)(C)c1cnc(CSc2cnc(NC(=O)C3CCNCC3)s2)o1
A: > 63.3 µM

Q: For C[N+](C)([O-])C12CC3CC(CC(C3)C1)C2 then?
A: > 100 µM

Q: Try this compound too: COc1ccc(/C(C#N)=C2/O/C(=N/N)C(c3ccc(OC)c(OC)c3)C2=O)cc1OC (stereo unspecified)
A: > 100 µM

Q: Next compound up: CCCCCCCCCCCCCCCC[N+](C)(C)CCl
A: 12.8 µM

Q: Input Nc1ncnc2c1ncn2CCCNO
A: > 100 µM

Q: Note, next up: CC1=NN(c2cc(Cl)c(S(=O)(=O)O)cc2Cl)C2(C1)C(Cl)C(=O)N2c1nc2ccccc2s1 (stereo unspecified)
A: > 100 µM

Q: Try this compound next: CCOC(=O)c1cnc2c(ccc3ncccc32)c1OCC
A: > 100 µM

Q: Same question for COc1cc([C@H]2c3cc4c(cc3[C@H](NCc3ccc(F)cc3)C3COC(=O)[C@H]32)OCO4)cc(OC)c1O (stereo partly specified) please.
A: 6.67 µM

Q: Follow-up entry: COc1cc(C(=O)/C=C/c2c(C)n([O-])c3ccc(Cl)cc3[n+]2=O)cc(OC)c1OC
A: > 100 µM

API: the following record is the query input.
Q: What value of measured TGI is listed for CCOc1ccc(Nc2nc(N)nc(N)c2N=O)cc1 ?
A: > 100 µM

----------
# System: HCC-2998 colon
# measurement-description: NCI tumour cell line growth inhibition, 48 h
experimental-endpoint: GI50

Q: Notebook: pull reported GI50 for HCC-2998 colon, entry COC(=O)c1sc(=S)c2sc(C(=O)OC)c(C(=O)OC)c2c1C(=O)OC
A: 20.5 µM

Continuing:
Q: API: value(readout= GI50, system= HCC-2998 colon, query= OCCN1CCCN(CCCN2c3ccccc3Sc3ccc(C(F)(F)F)cc32)CC1 )
A: 1.81 µM

Q: Also check Nc1nc2c(ncn2C2OC(CO)C(O)C2O)c(=O)[nH]1 (centres undefined)
A: 78.7 µM

Q: Another: C#CCN(CCCOc1ccc(Cl)cc1Cl)CCCSC(=O)CCCCCN1/C(=C\C=C2/CCCC(/C=C/C3=[N+](CCCCCC(=O)[O-])c4ccccc4C3(C)C)=C2Cl)C(C)(C)c2ccccc21
A: 1.78 µM
